- testedOn: T1, human collagen type I, acid soluble, extracted from placenta (Sigma C7774) (human, UniProt P02452 162-1218; P08123 80-1119)
- T1 construct: tissue extract, gelled and dried in wells; also called dried human collagen; h-Collagen
- measurementProtocol: dried collagen assay
Bridge positions count the residues as written; N and C are the ends. Square brackets hold non-standard residues; d marks the D form. Primed or numbered codes have the meaning given here. Side chains are listed from the residue outwards. Ends that are not written are not given here. * marks the point of attachment. Bip = N[C@@H](Cc1ccc(-c2ccccc2)cc1)C(=O)O; Gd^T(3) = GdDTPA attached via thiourea; Phg = N[C@H](C(=O)O)c1ccccc1; Dab = NCC[C@H](N)C(=O)O; Gd^G = not defined here; Gd^T = not defined here; Gd^T″ = GdDTPA-thiourea; Cbz = O=C(OCc1ccccc1)*; AEEA = NCCOCCOCC(=O)O
So basically: % bound at 20% or higher? That is TRUE. Lower than 20%? That is FALSE.

Sample answers from the record:
>>> assignedlabel("{Gd^T″}-G[Dab]([Gly-Gd^T″])WHCYTK(Gd^T″)FPHHYCVY[Bip] (disulfide 5-14) [Compound ID 1007]")
"TRUE"
>>> assignedlabel("{Gd^T″}-GDWHCTTLFPHH[dY]CLYG (disulfide 5-14 (inferred); not fully specified (C-terminus)) [Compound ID 910]")
"FALSE"
>>> assignedlabel("{Gd^T(3)}-GK([Gly-Gd^T(3)])WHCYTYFPHHYCLY[Phg]K(Gd^T(3)) (disulfide 5-14; not fully specified (C-terminus)) [Compound ID 986]")
"TRUE"
>>> assignedlabel("{Gd^T}-GQWHCTTAFPHHYCLYG (disulfide 5-14 (inferred); not fully specified (C-terminus); reading uncertain) [Compound ID 853]")
"TRUE"
>>> assignedlabel("{Gd^T″}-DWTCSGDEYYWHCNYE (disulfide 4-13 (inferred); not fully specified (C-terminus)) [Compound ID 834]")
"TRUE"

Is the recorded value of % bound equal to or greater than 20% for this binder? Cbz-GQWHCTK(Gd^T″)RFPHHYCLYG (disulfide 5-14 (inferred)) [Compound ID 940] FALSE

Is the recorded value of % bound equal to or greater than 20% for this binder? {Gd^T″}-GK([Gly-Gd^T″])WHCYTK(Gd^T″)FPHHYCLYGK(Gd^T″) (disulfide 5-14 (inferred)) [Compound ID 995] TRUE

Is the recorded value of % bound equal to or greater than 20% for this binder? GQWHCTTYFPHHYCLYG-{AEEA-Gd^G} (disulfide 5-14 (inferred); reading uncertain, no N-terminal chelate printed) [Compound ID 874] TRUE

The measured values listed here are drawn from patent US20080044360A1.
